target-of-assay: Angiotensin-converting enzyme (Homo sapiens)
Sequence (P12821 whole entry): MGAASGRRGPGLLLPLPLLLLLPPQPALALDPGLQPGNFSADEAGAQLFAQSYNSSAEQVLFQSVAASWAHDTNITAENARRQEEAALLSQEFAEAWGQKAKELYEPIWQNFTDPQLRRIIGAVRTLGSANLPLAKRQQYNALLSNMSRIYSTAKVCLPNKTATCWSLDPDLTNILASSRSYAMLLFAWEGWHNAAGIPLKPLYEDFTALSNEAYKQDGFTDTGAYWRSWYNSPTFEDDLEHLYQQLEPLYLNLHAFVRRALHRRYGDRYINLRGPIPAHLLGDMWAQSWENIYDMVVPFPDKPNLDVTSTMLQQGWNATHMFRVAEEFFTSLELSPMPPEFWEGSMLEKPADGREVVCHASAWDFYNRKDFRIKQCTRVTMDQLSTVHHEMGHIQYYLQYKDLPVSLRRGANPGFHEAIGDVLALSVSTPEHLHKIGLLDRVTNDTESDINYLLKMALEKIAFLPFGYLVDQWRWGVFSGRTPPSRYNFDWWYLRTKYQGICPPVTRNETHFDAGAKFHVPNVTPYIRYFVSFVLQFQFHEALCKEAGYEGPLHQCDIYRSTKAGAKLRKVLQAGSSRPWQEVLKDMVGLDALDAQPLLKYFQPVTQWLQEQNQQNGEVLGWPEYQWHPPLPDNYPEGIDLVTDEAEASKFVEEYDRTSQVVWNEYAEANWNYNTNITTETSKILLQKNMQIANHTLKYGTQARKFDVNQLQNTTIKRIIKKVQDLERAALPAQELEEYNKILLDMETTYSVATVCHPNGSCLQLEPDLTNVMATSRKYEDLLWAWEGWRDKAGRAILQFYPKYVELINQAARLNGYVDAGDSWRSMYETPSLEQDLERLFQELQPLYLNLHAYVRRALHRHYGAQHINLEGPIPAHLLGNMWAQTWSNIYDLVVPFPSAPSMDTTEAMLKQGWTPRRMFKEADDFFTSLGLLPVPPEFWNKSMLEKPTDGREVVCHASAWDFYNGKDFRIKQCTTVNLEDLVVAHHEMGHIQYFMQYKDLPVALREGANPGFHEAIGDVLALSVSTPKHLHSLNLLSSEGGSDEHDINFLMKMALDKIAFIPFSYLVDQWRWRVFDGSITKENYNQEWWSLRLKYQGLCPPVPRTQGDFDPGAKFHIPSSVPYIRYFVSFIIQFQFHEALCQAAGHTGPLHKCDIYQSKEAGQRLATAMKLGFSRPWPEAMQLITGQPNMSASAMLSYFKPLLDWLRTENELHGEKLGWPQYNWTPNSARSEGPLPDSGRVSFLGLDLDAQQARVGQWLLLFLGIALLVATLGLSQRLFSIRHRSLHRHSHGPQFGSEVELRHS
measurement-notes: Inhibition of angiotensin-converting enzyme in whole blood by HPLC
quantity: IC50 (nM)

                                 smiles_str  test_value
0  C[C@H](CS)C(=O)N[C@@H](CSCc1ccccc1)C(=O)O          34
1  CCCc1ccc(CSC[C@H](NC(=O)[C@H](C)CS)C(=O)O)cc1         210
2  C[C@H](CS)C(=O)N[C@@H](CSC(C)(C)c1ccc(C2CCCCC2)cc1)C(=O)O        3000
3  C[C@H](CS)C(=O)N[C@@H](CSCc1ccc([N+](=O)[O-])cc1)C(=O)O         320
4  C[C@H](CS)C(=O)N[C@@H](CSCc1ccc(C(C)(C)C)cc1)C(=O)O         130

1. C[C@H](CS)C(=O)N[C@@H](CSCc1ccc(C2CCCCC2)cc1)C(=O)O
2. Cc1ccc(CSC[C@H](NC(=O)[C@H](C)CS)C(=O)O)cc1
## Input Lab note: check whether 1 or 2 has the lower measured IC50. Answer with the label corresponding to your selection.
## Output 2

Source of measurements: ChEMBL document CHEMBL1154514
